target: T1, T Cell Receptor Beta Constant 2 (TRBC2) (human, UniProt A0A5B9 1-144, limits assumed); assay: ELISA
T1 construct: ELISA antigen; also called TCR beta constant region 2
T1 sequence (A0A5B9 1-144 limits assumed): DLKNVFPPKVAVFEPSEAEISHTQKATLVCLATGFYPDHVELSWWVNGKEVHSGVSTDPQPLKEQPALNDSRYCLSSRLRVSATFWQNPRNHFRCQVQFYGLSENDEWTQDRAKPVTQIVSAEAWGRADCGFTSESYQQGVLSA
measured.metric: binding result

Jovi Hum 20 (antibody, V domains shown, also called H-AF 6) VH: QVQLVQSGAEVKKPGASVKVSCKASGYTFTGYVMHWVRQAPGQGLEWIGFINPYNDDIQSNERFRGRVTMTRDKSISTAYMELSRLRSDDTAVYYCARGAGYNFDGAYRFFDFWGQGTMVTVSS VL: DIVMTQSPLSLPVTPGEPASISCRSSQRLVHSNGNTYLHWYLQKPGQSPRLLIYRVSNRFPGVPDRFSGSGSGTDFTLKISRVEAEDVGVYYCSQSTHVPYTFGQGTKLEIK = no binding
Jovi Hum 19 (antibody, V domains shown, also called H-AF 5) VH: QVQLVQSGAEVKKPGASVKVSCKASGYTFTGYVMHWVRQAPGQGLEWIGFINPYNDDIQSNERFRGRVTMTRDTSISTAYMELSRLRSDDTAVYYCARGAGYNFDGAYRFFDFWGQGTMVTVSS VL: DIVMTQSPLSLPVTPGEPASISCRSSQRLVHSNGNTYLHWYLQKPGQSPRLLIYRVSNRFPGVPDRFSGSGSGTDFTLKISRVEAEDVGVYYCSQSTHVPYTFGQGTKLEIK = no binding
Jovi Hum 16 (antibody, V domains shown, also called H-AF 2) VH: QVQLVQSGAEVKKPGASVKVSCKASGYTFTGYVMHWVRQAPGQGLEWMGFINPYNDDIQSNERFRGRVTMTRDKSISTAYMELSRLRSDDTAVYYCARGAGYNFDGAYRFFDFWGQGTMVTVSS VL: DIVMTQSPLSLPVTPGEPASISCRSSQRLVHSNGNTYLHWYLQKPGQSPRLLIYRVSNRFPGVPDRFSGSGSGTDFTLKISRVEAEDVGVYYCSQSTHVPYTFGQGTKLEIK = no binding

Values compiled from patent US20260263599A1.
